Target: Aβ1-42 fibrils (human)
Sequence (peptide, as listed by the source): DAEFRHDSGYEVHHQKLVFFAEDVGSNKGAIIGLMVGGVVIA
Assay: competition ELISA; plate coated with fibril Aβ42; competitor hBP-biotin; IC50 of test divided by IC50 of hBP
MEASUREMENT LABEL: IC50 ratio (test:hBP)
Number only, no unit.

Sample answers from the record:
{"BINDER": "h2826 (antibody, V domains shown) VH: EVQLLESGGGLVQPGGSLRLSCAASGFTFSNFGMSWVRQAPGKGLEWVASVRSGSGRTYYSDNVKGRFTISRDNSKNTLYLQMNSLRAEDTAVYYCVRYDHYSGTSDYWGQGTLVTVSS VL: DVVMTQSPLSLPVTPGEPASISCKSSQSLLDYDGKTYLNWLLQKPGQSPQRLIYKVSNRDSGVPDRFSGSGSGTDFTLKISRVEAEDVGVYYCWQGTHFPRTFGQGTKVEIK", "VALUE OBSERVED": 1.1}
{"BINDER": "h49k3G (antibody, V domains shown) VH: EVQLLESGGGLVQPGGSLRLSCAASGFTFSNFGMSWVRQAPGKGLEWVASVRSGGGRTYYSDNVKGRFTISRDNSKNTLYLQMNSLRAEDTAVYYCVRYDHYSGTSDYWGQGTLVTVSS VL: DVVMTQSPLSLPVTLGEPASISCKSSQSLLDSDGKTYLNWLLQKPGQSPQRLIYKVSNRDSGVPDRFSGSGSGTDFTLKISRVEAEDVGVYYCWQGTHFPRTFGQGTKVEIK", "VALUE OBSERVED": 2.16}

Documented IC50 ratio (test:hBP) of h2929 (antibody, V domains shown) VH: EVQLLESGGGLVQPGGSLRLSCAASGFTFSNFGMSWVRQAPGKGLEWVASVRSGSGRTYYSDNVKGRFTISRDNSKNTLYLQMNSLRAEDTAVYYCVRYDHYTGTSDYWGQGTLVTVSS VL: DVVMTQSPLSLPVTPGEPASISCRSSQSLVDYDGKTYLNWLLQRPGQSPQRLIYKVSNRDSGVPDRFSGSGSGTDFTLKISRVEAEDVGVYYCWQGSHFPRSYGQGTKVEIK : 1.16
